Every entry's value here was drawn from patent US20050282743A1.

# tgt: T1, GST-Shank 1 PDZ domain 1 (Homo sapiens (Human)), Q9UPX8
# T1 chain: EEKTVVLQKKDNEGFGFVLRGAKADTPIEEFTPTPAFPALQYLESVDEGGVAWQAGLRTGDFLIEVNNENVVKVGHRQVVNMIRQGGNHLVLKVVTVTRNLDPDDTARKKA
# test-details: G' assay; further: key of the grades not given here
measurement-type: Classification (A450 class)

> print(dat)
                                      binder   unit.info  reported
 1  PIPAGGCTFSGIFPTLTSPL (modifications not checked) [KIA 1481]  A450 class         5
 2  LNETTETQRTLLNGDLQTSI (modifications not checked) [SSTR2 (somatostatin recepor 2)]  A450 class         1
 3  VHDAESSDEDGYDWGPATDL (modifications not checked) [zona occludens 3 (ZO-3) PL peptide]  A450 class         1
 4  QATSRNGHSARQHVVADTEL (modifications not checked) [CD34]  A450 class         1
 5  AWDDSARAAGGQGLHVTAL (modifications not checked) [LPAP]  A450 class         3
 6  PSWRRSSLSESENATSLTTF (modifications not checked) [BLR-1]  A450 class         3
 7  TFAAGFNSTGLPHSTTRV (modifications not checked) [Neuroligin]  A450 class         2
 8  DAKLKSDGTIAAITEKETHF (modifications not checked) [GABA transporter 3]  A450 class         1
 9  DSDPENEPFDEDQHTQITKV (modifications not checked) [PTEN]  A450 class         3
10  PPATPSPRLALPAHHNATRL (modifications not checked) [Na+/Pi cotransporter 2]  A450 class         5
11  KPQIAALKEETEEEVQDTRL (modifications not checked) [CFTCR (cystic fibrosis transmembrane conductance regulator)]  A450 class         1
12  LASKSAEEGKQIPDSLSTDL (modifications not checked) [DOCK2]  A450 class         1
13  KENDYESISDLQQGRDITRL (modifications not checked) [PAG]  A450 class         4
14  KDSRPSFVGSSSGHTSTTL (modifications not checked) [CDw128B]  A450 class         3
15  TREDIYVNYPTFSRRPKTRV (modifications not checked) [DNAM-1]  A450 class         5
